# Tested on: LOX IMVI melanoma
# assay_notes: NCI tumour cell line growth inhibition, 48 h
Use 1 (yes) when the recorded TGI is no lower than 30 µM; use 0 (no) when it is lower.

Example entries begin here.
# compound, discrete_label
records = [
    ("NC1c2c(Cl)sc(Cl)c2C(=O)C1O (stereo not drawn)", "1 (yes)"),
    ("Oc1c(CN2CCCC2)cc(CSCc2ccccc2)c2cccnc12", "0 (no)"),
    ("CCN1CCCn2c(=O)[nH]c3cc(Br)cc1c32", "1 (yes)"),
    ("Cc1ccc2sc3ccc(N)cc3c(=O)c2c1", "1 (yes)"),
    ("CN1c2ccccc2S(=O)(=O)n2c(CCc3ccccc3)nnc21", "1 (yes)"),
]

From here, focus on the item given below.
QUERY: Identify whether the reported TGI of the following compound is 30 µM or greater: O=C1CCN2CCC(=O)c3c2c(cc2ccccc32)N1
RESULT: 1 (yes)

----------
Please respond with reported TGI for every item in the list.
# Test system: MDA-MB-435
# assay_notes: NCI tumour cell line growth inhibition, 48 h

Take a look at these entries with their results.
# compound, TGI
data = [
    ("COc1ccc(C2SCC(=O)N2NC(=O)C(C)Oc2ccc(Cl)cc2Cl)cc1 (centres undefined)", "> 100 µM"),
    ("Cc1nn(CNc2ccccc2C(F)(F)F)c(=S)n1/N=C/c1ccc(F)cc1", "> 100 µM"),
    ("O=C1c2ccccc2C(=O)c2nn(N=P(CP(=Nn3nc4c(n3)C(=O)c3ccccc3C4=O)(c3ccccc3)c3ccccc3)(c3ccccc3)c3ccccc3)nc21", "> 100 µM"),
    ("NC(=S)N/N=C1\\CCCC1C(O)(C(F)(F)Cl)C(F)(F)Cl (centres undefined)", "> 10 µM"),
    ("Cc1cc2nc(-c3c(N)ncc(C#N)c3-c3ccc(Cl)cc3)[nH]c2cc1C", "> 100 µM"),
]

# batch size: 4; output TGI per entry
1. Cc1cc(=O)oc2cc(OC(=O)N(CCCl)CCCl)ccc12
2. CC1(C)C=[N+]([O-])C(C)(C)N1O
3. COc1cc2c(cc1O)CCN(C)[C@H]2Cc1ccc(Oc2c(O)c(OC)cc3c2C[C@H]2c4c(c(OC)c(OC)c(OC)c4-3)CCN2C)cc1
4. COc1cc2c(c(OC)c1)C(=O)O[C@H](C)CCCC/C=C/C2

RESULT:
> 100 µM
> 10 µM
8.7 µM
12.9 µM

----------
# System: CCRF-CEM leukemia
# assay_notes: NCI tumour cell line growth inhibition, 48 h
property: TGI

Take a look at these entries with their results.
# compound, TGI
data = [
    ("COc1cc2oc(-c3ccc4c(c3)OCO4)c(OC)c(=O)c2c(O)c1OC", "> 50 µM"),
    ("C/C(=N/NC(=S)N1CCN(C(=S)N/N=C(/C)c2ccccn2)CC1)c1ccccn1", "> 100 µM"),
    ("COC(=O)[C@H]1N[C@@H](C(=O)OC)C23CCC[C@H]2CC[C@]1(C(OC)OC)C3", "> 100 µM"),
    ("O=c1c2cc(Br)ccc2ncn1COCc1ccccc1", "> 100 µM"),
]

# batch size: 2; output TGI per entry
1. COC1(OC)C=CC(=O)C=C1
2. O=c1nc2ccc3sc4ccccc4c(=O)c3n2c(=O)[nH]1

RESULT:
1: 22.4 µM; 2: > 100 µM

# batch size: 2; output TGI per entry
1. COc1cc(/C=C2\CN(C(=O)CCN3CCC(=NO)CC3)C/C(=C\c3cc(OC)c(OC)c(OC)c3)C2=O)cc(OC)c1OC
2. CC(=O)Nc1ccc(/C=C2/NC(=S)N(/C=C3\C(=O)Oc4ccccc4C3=O)C2=O)cc1

RESULT:
1: 1.6 µM; 2: > 100 µM

# batch size: 3; output TGI per entry
1. COc1cc(C)cc2c(-c3c(O)cc(O)c4c3C[C@H](C)N[C@H]4C)cc(-c3cc(-c4c(O)cc(O)c5c4C[C@H](C)N[C@H]5C)c4cc(C)cc(OC)c4c3O)c(O)c12
2. CC1(C)C=[N+]([O-])C(C)(C)N1O
3. COc1ccc2ccccc2c1CN1CCOCCOCCN(Cc2c(OC)ccc3ccccc23)CCOCCOCC1

RESULT:
> 100 µM
> 10 µM
> 100 µM

----------
# Test system: SK-OV-3 ovarian
# assay_notes: NCI tumour cell line growth inhibition, 48 h; in the data active = GI50 below about 0.43 µM; inactive = the rest
Outcome (select one): true (1) (active), false (0) (inactive)

Example entries begin here.
# compound, discrete_label
data = [
    ("CCC[CH2][Sn]1([CH2]CCC)[O]C(=O)c2ccc(N)cc2[O]1", "false (0)"),
    ("CC[C@@]12C=CCN3CC[C@]4(c5cc(NC(=O)COc6cc(OCC(=O)Nc7cc8c(cc7OC)N(C)[C@H]7[C@@](O)(C(=O)OC)[C@H](OC(C)=O)[C@]9(CC)C=CCN%10CC[C@]87[C@@H]%109)cc7oc(-c8ccccc8)cc(=O)c67)c(OC)cc5N(C)[C@@H]4[C@](O)(C(=O)OC)[C@H]1OC(C)=O)[C@H]32", "false (0)"),
    ("C/C(=C(/c1ccc(O)cc1)c1ccc(Cl)cc1)c1ccccc1", "false (0)"),
    ("COC(=O)c1cc(-c2ccc(OC)cc2)[nH]c1N/N=C/c1c(Cl)cccc1Cl", "true (1)"),
    ("CCCCCCNC(=O)Oc1ccc(/C(=C(/C)Cc2ccc(OC)cc2)c2ccc(OCCN(C)C)cc2)cc1", "false (0)"),
]

QUERY: Hi, sorry to bother you, what did the test record for CCC1(OC(=O)CN)C(=O)OCc2c1cc1n(c2=O)Cc2cc3cc4c(cc3nc2-1)OCO4 (configuration not stated) ?
RESULT: true (1)

QUERY: Thanks! And CC(C)(C)n1cc(-c2ccnc(NCCCNS(=O)(=O)c3ccc(Br)cc3)c2)c(-c2cccc(O)c2)n1 ?
RESULT: false (0)

----------
# Test system: NCI-H460 lung
# assay_notes: NCI tumour cell line growth inhibition, 48 h
Please respond with reported TGI for every item in the list.

Take a look at these entries with their results.
# molecule, target_of_assay, TGI
data = [
    ("COC(=O)/C=c1/c2ccccc2n2c1c1ccccc1[n+]2C", "NCI-H460 lung", "12.5 µM"),
    ("N=c1ccc2nc3c(cc(N)c4ccccc43)oc-2c1", "NCI-H460 lung", "0.565 µM"),
    ("Clc1ccc2c(c1)C(N1CCNCC1)=Nc1ccccc1O2", "NCI-H460 lung", "5.41 µM"),
    ("O=C1/C(=C/c2ccc(O)cc2)CCC1CNc1ccccc1 (stereo not given)", "NCI-H460 lung", "50.9 µM"),
    ("COc1cc(C2c3cc4c(cc3[C@@H](OCCN(C)C)C3COC(=O)[C@H]23)OCO4)cc(OC)c1O (stereo not given in full)", "NCI-H460 lung", "0.441 µM"),
    ("O=[N+]([O-])c1cc(F)ccc1Sc1ccccc1", "NCI-H460 lung", "> 10 µM"),
]

# batch size: 2; output TGI per entry
1. O=C1CCN2CCC(=O)c3c2c(cc2ccccc32)N1
2. Cc1nc2c(n1-c1ccccc1)C(=O)c1ccccc1C2=O

RESULT:
1. > 100 µM
2. > 100 µM

# batch size: 5; output TGI per entry
1. CCCCNC(=O)Oc1ccc(/C(=C(/CC)Cc2ccccc2)c2ccc(OCCN3CCCCCC3)cc2)cc1
2. Cc1ccc(NC2=N/C(=C/c3ccco3)C(Cl)=N2)cc1
3. CN(C)CCCc1c2ccccc2nc2ccc(Cl)cc12
4. Nc1nc(N)nc(CC(=O)O)n1
5. COC(=O)c1ccc(C(=O)OC)c2nc3cc(C)ccc3nc12

RESULT:
["33.8 µM", "> 100 µM", "25.3 µM", "> 100 µM", "> 100 µM"]

----------
# System: OVCAR-8 ovarian
# assay_notes: NCI tumour cell line growth inhibition, 48 h
*1 amine or outer side, *2 acyl side, *3 side chain or, on linkers, in order; H or OH if unused. Where a SMILES comes first, the peptide text is derived from it. Bridges are numbered along the chain shown (N, C = ends). [ ]: non-standard residue; d: D form. ξ: configuration not given here. X35 = CC[C@H](C)[C@@H](N[*:1])[C@@H](O)CC(=O)O[C@H](C(=O)[C@H](C)C(=O)[*:2])C(C)C; NMeY = CN[C@@H](Cc1ccc(O)cc1)C(=O)O; dNMeL = CN[C@H](CC(C)C)C(=O)O; ξΔPro = O=C(O)C1C=CCN1
property: TGI

# compound, target_of_assay, TGI
rows = [
    ("COc1cc2ncnc3c2cc1OCCCCCN(C)Cc1ccc(Br)cc1N3", "OVCAR-8 ovarian", "> 100 µM"),
    ("CC1=CC[C@](C)(O)[C@@]2(C)CC[C@H]3C(=C(C)C)C(=O)C[C@]3(C)C[C@H]12", "OVCAR-8 ovarian", "> 50 µM"),
    ("Nn1c(Sc2nc3ccccc3c(=O)n2N)nc2ccccc2c1=O", "OVCAR-8 ovarian", "11.1 µM"),
]

# batch size: 6; output TGI per entry
1. O=C1/C(=C/c2ccc(O)cc2)CCC1CNc1ccccc1 (centres undefined)
2. O=C(O)CCSC1=NCCN1
3. COc1cc2c3c(c1OC)C1(C=CC(=O)C=C1)CC3NCC2 (centres undefined)
4. COc1ccc(N2C(=O)C3c4[nH]c5ccccc5c4C4CCCCCCC4C3C2=O)cc1 (centres undefined)
5. COc1cc(/C=C2\CC3C4CC=C5C[C@@H](O)CC[C@]5(C)C4CC[C@]3(C)C2=O)ccc1OCCCn1ccnc1 (some centres undefined)
6. O=C1CCN2CCC(=O)c3c2c(cc2ccccc32)N1

RESULT:
1: 29.9 µM; 2: > 100 µM; 3: > 100 µM; 4: 13 µM; 5: 47.5 µM; 6: > 100 µM

# batch size: 5; output TGI per entry
1. COC(=O)/C=C1\C(=O)C=C2[C@@H]3C[C@H]4C[C@H](CC[C@@]4(C)N21)C3(C)NC(C)=O (some centres undefined)
2. Cc1cccc(N=C2NC(=O)C(CC(=O)Nc3ccc(C)cc3C)S2)c1 (centres undefined)
3. CCn1c(=O)c2c3ccc(OC(C)=O)cc3[nH]c2c2ccc(OC(C)=O)cc21
4. CC[C@H](C)[C@H]1NC(=O)[C@@H](NC(=O)[C@@H](CC(C)C)N(C)C(=O)C2C=CCN2)[C@@H](C)OC(=O)[C@H](Cc2ccc(OC)cc2)N(C)C(=O)[C@@H]2CCCN2C(=O)[C@H](CC(C)C)NC(=O)[C@@H](C)C(=O)[C@H](C(C)C)OC(=O)C[C@@H]1O (some centres undefined) (H-[ξΔPro][dNMeL]T[X35]LP[NMeY](Me); ester 3-C)
5. Nc1cc2[nH]cnc2c(=O)[nH]1

RESULT:
51.2 µM
> 100 µM
> 100 µM
0.0118 µM
> 300 µM

# batch size: 4; output TGI per entry
1. O=c1nc2ccc3sc4ccccc4c(=O)c3n2c(=O)[nH]1
2. COc1ccccc1NC(=S)N/N=C/c1ccccn1
3. O=C(Nc1ccc(Br)cc1)Nc1nn(C(=O)Nc2ccc(Br)cc2)c2ccccc12
4. CC1CN=C(c2ccc(-c3nc(-c4ccc(C5=NCC(C)N5)cc4)nc(N(C)C)n3)cc2)N1 (centres undefined)

RESULT:
1: > 100 µM; 2: 12.9 µM; 3: > 100 µM; 4: 10 µM

# batch size: 7; output TGI per entry
1. COc1ccc(C2SCC(=O)N2NC(=O)C(C)Oc2ccc(Cl)cc2Cl)cc1 (centres undefined)
2. Cc1cc(=O)oc2cc(OC(=O)N(CCCl)CCCl)ccc12
3. Cc1c(C(=O)CC(=O)C(=O)Nc2cc(Cl)ccc2Cl)[n+](=O)c2ccccc2n1[O-]
4. O=C(O)Cc1ccccc1CCc1ccccc1Cl
5. COC(=O)c1ccc(CN2C(=O)C(Cl)=C(Nc3ccc(OC)c(Cl)c3)C2=O)cc1
6. CCN(CC)C1Oc2cc3c(cc2C(c2cc(OC)c(OC)c(OC)c2)C1C)OCO3 (centres undefined)
7. Cc1nc2c(n1-c1ccccc1)C(=O)c1ccccc1C2=O

RESULT:
1: > 100 µM; 2: > 100 µM; 3: > 100 µM; 4: > 100 µM; 5: > 50 µM; 6: > 43.2 µM; 7: > 100 µM

# batch size: 4; output TGI per entry
1. CC(=Nc1cc(Cl)cc(Cl)c1)c1ccncc1
2. N#C/C(C(=O)Nc1ccccc1)=C(/N)N1CCCCC1
3. C[PH+](c1nc2ccccc2nc1[PH+](C)C(C)(C)C)C(C)(C)C.C[PH+](c1nc2ccccc2nc1[PH+](C)C(C)(C)C)C(C)(C)C.[Au+].[Cl-] (centres undefined)
4. O=C(O)c1cccc(/C=C/c2ccccc2)c1

RESULT:
["> 100 µM", "> 100 µM", "1.88 µM", "> 100 µM"]
